target: UniProtKB P34972; set-up: expressed in transfected cells; host or cells: Flp-In-293 (Invitrogen #R750-07), pcDNA5/FRT; settings: hCB2R
Sequence (P34972 whole entry): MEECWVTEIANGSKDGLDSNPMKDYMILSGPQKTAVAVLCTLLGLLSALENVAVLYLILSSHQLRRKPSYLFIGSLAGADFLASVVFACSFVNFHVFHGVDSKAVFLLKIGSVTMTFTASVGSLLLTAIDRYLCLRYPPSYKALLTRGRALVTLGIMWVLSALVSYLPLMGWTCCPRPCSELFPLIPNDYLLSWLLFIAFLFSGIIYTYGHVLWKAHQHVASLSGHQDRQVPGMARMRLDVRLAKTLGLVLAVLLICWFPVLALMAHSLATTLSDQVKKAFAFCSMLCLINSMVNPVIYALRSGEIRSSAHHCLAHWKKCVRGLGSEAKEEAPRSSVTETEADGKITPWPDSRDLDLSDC
Reported GIRK-GTPγS bias factor (BF) values follow for various compounds
Measure name: GIRK-GTPγS bias factor (BF)

> print(dat)
                                   compound                 measure.name  recorded.number
1  CN1CCCCC1Cn1cc(C(=O)c2cc([N+](=O)[O-])ccc2I)c2ccccc21 (racemic) [(rac)-AM1241]  GIRK-GTPγS bias factor (BF)             1.08
2  CCCCC/C=C\C/C=C\C/C=C\C/C=C\CCCC(=O)OC(CO)CO [2-AG, 2-arachidonoyl glycerol]  GIRK-GTPγS bias factor (BF)           154.53
3  CN1CCCC[C@@H]1Cn1cc(C(=O)c2cc([N+](=O)[O-])ccc2I)c2ccccc21 [(R)-AM1241]  GIRK-GTPγS bias factor (BF)             0.04
4  CCCCCCC(C)(C)c1cc(OC)c(C2=C[C@H]3CC[C@]2(CO)C3(C)C)c(OC)c1 [HU910]  GIRK-GTPγS bias factor (BF)             0.31
5  CCCCCCC(C)(C)c1cc(OC)c([C@@H]2C=C(CO)[C@@H]3C[C@H]2C3(C)C)c(OC)c1 [HU308]  GIRK-GTPγS bias factor (BF)             0.56
6  CN1CCCC[C@H]1Cn1cc(C(=O)c2cc([N+](=O)[O-])ccc2I)c2ccccc21 [(S)-AM1241]  GIRK-GTPγS bias factor (BF)             0.16
7  CCCCC/C=C\C/C=C\C/C=C\C/C=C\CCCC(=O)NCCO [Anandamide, N-arachidonoylethanolamine]  GIRK-GTPγS bias factor (BF)             2.57
